# Tested on: P. falciparum K1
# experimentalDetails: In vitro antiplasmodium assay
# Format: cell-based
# conditionParameters: Plasmodium falciparum, K1, read-out: IC50 PfK1

| structure | IC50 (nM) |
| --- | --- |
| N#CCN1CCN(c2nc3cc(Cl)ccc3n2Cc2ccccc2)CC1 | 454 |

----------
# experimentalDetails: Aqueous solubility, miniaturized shake flask method
# Format: physicochemical
# conditionParameters: aqueous solution, 25 °C, pH 2, simulated gastric fluid, thermodynamic from solid
// solubility at 20 h lookup, one value per entry

| structure | readoutUnit | sign | solubility at 20 h |
| --- | --- | --- | --- |
| O=C(NCCCNc1nc2ccccc2n1Cc1ccccc1)c1cc(Cl)cc(Cl)c1 | µM | = | 10 |
| N#CCN1CCN(c2nc3cc(Cl)ccc3n2Cc2ccccc2)CC1 | µM | > | 150 |
| Cl.Clc1ccc2c(c1)nc(N1CCNCC1)n2Cc1ccccc1 | µM | = | 150 |
